src = a melting point compilation (Tetko et al.; mined from patent text by program, amines drawn as free bases though some values may be those of a salt)

assay metric: melting point

| molecule | melting point |
| --- | --- |
| C(=NC1CN2CCC1CC2)c1ccc(-c2ccccc2)cc1 (stereo unspecified) | 82 to 84 °C |
| Cc1c(Cc2ccc(C(C)C)cc2)c2c(c(C)c1NC(=O)CC(C)(C)C)C(N1CCCC1)C(C)(C)O2 (stereo unspecified) | 179 to 180 °C |
| CCC(=O)N(Cc1cccc(-c2ccccc2)c1)c1cccc(-c2nnn[nH]2)c1 | 91 °C |
| CC(C)(C)c1ccc(/C=C/C(=O)OCc2ccccc2)cc1 | 59 to 62 °C |
| O=CNc1ccccc1CNC1CCC(=O)NC1=O (stereo unspecified) | 169 to 174 °C |

// below: melting point requested for another molecule
Which melting point is reported for this molecule? CCCCCCC(=O)NCCO
91 to 93 °C
